Tested on: DeltatarO mutant
Experiment: S. aureus survival, RN4220 and DeltatarO strains – OD600, teichoic acid synthesis inhibitors, primary screen (AID 463173)
Conditions: S. aureus RN4220 wild type/DeltatarO growth, OD600, 18 h, stronger effect = lower value, screened at 18.75 µg/mL (by protocol)
Hit rate of the full screen: of about 52,000 compounds, about 4,300 (8.3%) were called active. What follows is part of a selection rich in actives, with near analogues and random picks from the rest.
Reported metric: survival (%)
Report the figure in % without appending any unit label.

IN: Retrieve survival measured for "O=C1CSC(=Nc2cccc(C(=O)O)c2)N1" and print it.
OUT: 82

IN: Retrieve survival measured for "O=C(CN1C(=O)COc2ccc(S(=O)(=O)Nc3ccccc3)cc21)NCc1ccccc1Cl" and print it.
OUT: 102

IN: Retrieve survival measured for "Cc1cc(C)cc(-n2c(SCC(N)=O)nc3c(oc4ccccc43)c2=O)c1" and print it.
OUT: 97

IN: Retrieve survival measured for "CCCCN(Cc1ccccc1)C(=O)CN(C)S(=O)(=O)c1ccc2c(c1)c(=O)n(C)c(=O)n2C" and print it.
OUT: 128

IN: Retrieve survival measured for "O=C(CCn1c(=O)c2sccc2n(Cc2ccc(F)cc2)c1=O)NCc1ccc2c(c1)OCO2" and print it.
OUT: 89

IN: Retrieve survival measured for "Cc1ccc(NC(=O)CSc2nc(C)c(Cc3ccccc3)c(=O)[nH]2)cc1" and print it.
OUT: 48

IN: Retrieve survival measured for "COc1cc(C(=O)N2CCN(CCc3ccccn3)CC2)cc(OC)c1OC" and print it.
OUT: 66

IN: Retrieve survival measured for Cc1ccc(CCNC(=O)c2ccc3c(c2)N(Cc2ccccc2F)C(=O)c2ccccc2S3=O)cc1 (centres undefined) and print it.
OUT: 69

IN: Retrieve survival measured for "O=C(Nc1ccc(C(=O)OCc2cc(=O)n3nc(C4CC4)sc3n2)cc1)c1cccc(F)c1" and print it.
OUT: 67

IN: Retrieve survival measured for "Cc1cc(Oc2c(C(F)(F)F)oc3c(CN4CCC(C)CC4)c(O)ccc3c2=O)cc(C)c1Cl" and print it.
OUT: 70

IN: Retrieve survival measured for "COc1ccc(-n2nc3c(N4CCC(C(=O)NCc5ccccc5C)CC4)nnc(C)c3c2C)cc1" and print it.
OUT: 90

IN: Retrieve survival measured for "CN1C(=O)CSC1=Nc1cccc(C(=O)O)c1" and print it.
OUT: 89

IN: Retrieve survival measured for O=C(O)C1CCCCC1C(=O)Nc1cccc(C(=O)N2CCCCC2)c1 (centres undefined) and print it.
OUT: 101

IN: Retrieve survival measured for "CN1C(=O)c2ccccc2Sc2ccc(NC(=O)NCc3ccc(Cl)cc3)cc21" and print it.
OUT: 96

IN: Retrieve survival measured for COc1ccc(-n2nc3c(N4CCCC(C(=O)NCCc5ccccc5C)C4)nnc(C)c3c2C)cc1 (centres undefined) and print it.
OUT: 70

IN: Retrieve survival measured for "O=C(CCn1c(=O)c2sccc2n(Cc2cccc(F)c2)c1=O)NCc1ccc2c(c1)OCO2" and print it.
OUT: 97

IN: Retrieve survival measured for "Cc1ccc(NC(=O)Cn2c(=O)n(CCC(=O)NCc3ccc4c(c3)OCO4)c(=O)c3sccc32)c(C)c1" and print it.
OUT: 87

IN: Retrieve survival measured for "COc1ccc(Cl)cc1NC(=O)c1cc2ccccn2n1" and print it.
OUT: 124

IN: Retrieve survival measured for O=C(NCC(c1cccs1)S(=O)(=O)c1ccccc1)c1ccc(C(F)(F)F)cc1 (centres undefined) and print it.
OUT: 90

IN: Retrieve survival measured for Cc1ccc(CNC(=O)CCCCCn2c(=O)c3sccc3n(CC(=O)N3CCCCC3C)c2=O)cc1 (centres undefined) and print it.
OUT: 48

IN: Retrieve survival measured for COc1cc(C2C(C(=O)Nc3ccc(C)cc3C)=C(C)Nc3nc(SCc4ccccc4)nn32)cc(OC)c1OC (centres undefined) and print it.
OUT: 64

IN: Retrieve survival measured for "O=C(CN1C(=O)COc2ccc(S(=O)(=O)N3CCCCC3)cc21)NCCc1ccc(Cl)cc1" and print it.
OUT: 73

IN: Retrieve survival measured for "Cc1ccccc1NC(=O)Cn1c(=O)n(CCCCCC(=O)NCc2ccc3c(c2)OCO3)c(=O)c2sccc21" and print it.
OUT: 84

IN: Retrieve survival measured for "C=C(C)c1cccc(C(C)(C)NC(=O)NC2CC(C)(C)NC(C)(C)C2)c1" and print it.
OUT: 107

IN: Retrieve survival measured for "Cc1cc(N2CCC(C(O)(c3ccccc3)c3ccccc3)CC2)nc(C)n1" and print it.
OUT: 108

IN: Retrieve survival measured for "O=C(Nc1ccc(F)cc1F)c1ccc(-n2cnnc2)cc1" and print it.
OUT: 73

IN: Retrieve survival measured for "O=c1c(S(=O)(=O)c2ccccc2)cn(Cc2cccc(F)c2)c2cc(N3CCOCC3)c(F)cc12" and print it.
OUT: 78

IN: Retrieve survival measured for "CCc1c(C)c2ccc(O)c(CN3CCN(c4ccc(F)cc4)CC3)c2oc1=O" and print it.
OUT: 55

IN: Retrieve survival measured for "COc1ccccc1N1CCN(S(=O)(=O)c2ccc(F)c(C(=O)Nc3ccc(C)c(F)c3)c2)CC1" and print it.
OUT: 93

IN: Retrieve survival measured for "O=C(Cc1ccc(F)cc1)NCCc1csc(-c2cccc(F)c2)n1" and print it.
OUT: 88

IN: Retrieve survival measured for "CCc1c(C)c2ccc(O)c(CN3CCN(c4ccccc4)CC3)c2oc1=O" and print it.
OUT: 56

IN: Retrieve survival measured for "CCN(CC)CCNC(=O)c1c(C)oc2ncn(C)c(=O)c12" and print it.
OUT: 91

IN: Retrieve survival measured for "COc1ccc(Cl)c2sc(NC(=O)c3ccc(S(=O)(=O)N4CCOCC4)cc3)nc12" and print it.
OUT: 69

IN: Retrieve survival measured for "CCc1ccc(CNC(=O)Cn2c(-c3cccs3)cc3cc(F)ccc32)cc1" and print it.
OUT: 119

IN: Retrieve survival measured for "O=C(CCCCCn1c(=O)c2sccc2n(CC(=O)Nc2cccc(Cl)c2)c1=O)NCc1ccc2c(c1)OCO2" and print it.
OUT: 57

IN: Retrieve survival measured for "CC(C)(CC(=O)NCc1ccc(Cl)cc1Cl)CC1=NS(=O)(=O)c2ccccc2N1" and print it.
OUT: 75

IN: Retrieve survival measured for "CCOc1ccc(-n2ccnc2SCC(=O)Nc2cccc3ccccc23)cc1" and print it.
OUT: 68

IN: Retrieve survival measured for "Cc1ccc(-n2nc(C(=O)N3CCN(c4cc(Cl)ccc4C)CC3)c(=O)n(C)c2=O)cc1" and print it.
OUT: 116

IN: Retrieve survival measured for "Cc1cccc(C)c1NC(=O)Cn1c(=O)n(CCC(=O)NCc2ccc3c(c2)OCO3)c(=O)c2sccc21" and print it.
OUT: 90

====

Test system: DeltatarO mutant
Test: S. aureus survival, RN4220 and DeltatarO strains – OD600, teichoic acid synthesis inhibitors, primary screen (AID 463173)
Details: S. aureus RN4220 wild type/DeltatarO growth, OD600, 18 h, stronger effect = lower value, screened at 18.75 µg/mL (by protocol)
The whole screen tested about 52,000 compounds, of which about 4,300 (8.3%) were called active. The sample holds actives, similar compounds and a random draw of the others, so the mix is not that of the screen.
So I've got a bunch of molecules here, and I need their survival values.
Report the figure in % without appending any unit label.

IN: Retrieve survival measured for COc1ccccc1Cn1c(C2CC(=O)N(c3ccccc3OC)C2)nc2ccccc21 (stereo not given) and print it.
OUT: 49

IN: Retrieve survival measured for "Cc1cccc(C(=O)Nc2nc(-c3nnn(-c4cc(C)ccc4C)c3C)ns2)c1" and print it.
OUT: 94

IN: Retrieve survival measured for "Cc1c(-c2nsc(NC(=O)c3ccccc3)n2)nnn1-c1ccc(C(F)(F)F)c(Cl)c1" and print it.
OUT: 86

IN: Retrieve survival measured for CCc1ccccc1N1CC(c2nc3ccccc3n2CC(C)C)CC1=O (stereo not given) and print it.
OUT: 78

IN: Retrieve survival measured for "O=C1Nc2ccccc2N(O)N1c1ccccc1Cl" and print it.
OUT: 90

IN: Retrieve survival measured for "CCCCN(C)c1nc2c(S(=O)(=O)c3ccc(CC)cc3)nnn2c2ccc(Cl)cc12" and print it.
OUT: 76

IN: Retrieve survival measured for "CCc1ccc(-n2nnc(-c3nsc(NC(=O)c4ccccc4Cl)n3)c2C)cc1" and print it.
OUT: 15

IN: Retrieve survival measured for "Cc1cc(C)cc(-n2nnc(-c3nsc(NC(=O)c4ccccc4Cl)n3)c2C)c1" and print it.
OUT: 64

IN: Retrieve survival measured for "CSc1cccc(-n2nnc(-c3nsc(NC(=O)c4cccs4)n3)c2C)c1" and print it.
OUT: 73

IN: Retrieve survival measured for "Cc1ccc(-n2nnc(-c3nsc(NC(=O)c4ccccc4C)n3)c2C)cc1Cl" and print it.
OUT: 134

====

System: DeltatarO mutant
Assay: S. aureus survival, RN4220 and DeltatarO strains – OD600, teichoic acid synthesis inhibitors, primary screen (AID 463173)
Conditions: S. aureus RN4220 wild type/DeltatarO growth, OD600, 18 h, screened at 18.75 µg/mL (by protocol)
About 4,300 (8.3%) of roughly 52,000 compounds were called active. No stated cut-off is given here; in the data, active means survival mostly below about 52% (no sharp cut-off); inactive means mostly above about 56%. What follows is part of a selection rich in actives, with near analogues and random picks from the rest.
Just give me one of these, please: label 1 for active, label 0 for inactive

IN: For "CCc1c(CN2CCN(c3ccc(F)cc3)CC2)csc1C" , what call appears in the results of this test?
OUT: label 1

IN: For "Brc1cccc(-c2nnn3c2nc(NC2CCCCC2)c2ccccc23)c1" , what call appears in the results of this test?
OUT: label 0

IN: For "Cc1ccc(-c2c(CN3CCN(c4cc(C)ccc4C)CC3)csc2C)cc1" , what call appears in the results of this test?
OUT: label 0

IN: For "CCOc1ccc(S(=O)(=O)N(CC(=O)NCc2ccccc2OC)c2ccccc2)cc1" , what call appears in the results of this test?
OUT: label 1

IN: For "CC(C)c1ccc2oc(-c3ccc(Cl)c(NC(=O)c4cccs4)c3)nc2c1" , what call appears in the results of this test?
OUT: label 1

IN: For "Cc1nc2cc(C(F)(F)F)ccc2n1C1CCN(CC(=O)N2CCCC2)CC1" , what call appears in the results of this test?
OUT: label 0

IN: For "CCc1c(CN2CCN(c3cccc(C)c3C)CC2)csc1C" , what call appears in the results of this test?
OUT: label 0

IN: For CC1CCC(Nc2nc3c(-c4cccc(C(F)(F)F)c4)nnn3c3ccccc23)CC1 (stereo unspecified) , what call appears in the results of this test?
OUT: label 1

IN: For "Cc1nc2cccnc2n1-c1cccc(C(=O)NCCN(C)C)c1" , what call appears in the results of this test?
OUT: label 0

IN: For "COc1ccccc1Cn1c(CNS(=O)(=O)c2ccc3c(c2)CCCC3)nc2cccnc21" , what call appears in the results of this test?
OUT: label 0

IN: For "FC(F)(F)c1cccc(-c2nnn3c2nc(NC2CCCCC2)c2ccccc23)c1" , what call appears in the results of this test?
OUT: label 1

IN: For "CC(C)c1ccc2oc(-c3cc(NC(=O)c4cccs4)ccc3Cl)nc2c1" , what call appears in the results of this test?
OUT: label 1

IN: For "CCc1ccccc1NC(=O)CN(c1cccc(C)c1C)S(C)(=O)=O" , what call appears in the results of this test?
OUT: label 1

IN: For "CCOc1ccc(CCNc2nc3c(-c4ccc(C)cc4)nnn3c3ccccc23)cc1OCC" , what call appears in the results of this test?
OUT: label 0

IN: For "COc1ccccc1N(CC(=O)Nc1ccccc1C(F)(F)F)S(=O)(=O)c1ccc(C)cc1" , what call appears in the results of this test?
OUT: label 0

IN: For CCOc1ccc(NC(=O)CC2C(=O)N(c3ccc(C)cc3)C(=O)N2C2CCCCC2)cc1 (stereo unspecified) , what call appears in the results of this test?
OUT: label 0

IN: For "Cc1cccc(N(CC(=O)Nc2cccc(Cl)c2C)S(C)(=O)=O)c1C" , what call appears in the results of this test?
OUT: label 0

IN: For "CCOc1ccc(S(=O)(=O)N(CC(=O)NCCc2ccc(OC)c(OC)c2)c2ccccc2)cc1" , what call appears in the results of this test?
OUT: label 0

IN: For "CCOc1ccc(S(=O)(=O)N(CC(=O)NCCc2ccc(OC)cc2)c2ccccc2)cc1" , what call appears in the results of this test?
OUT: label 0

IN: For "Fc1cccc(-c2nnn3c2nc(NC2CCCCC2)c2ccccc23)c1" , what call appears in the results of this test?
OUT: label 0

IN: For "Cc1scc(CN2CCN(c3ccccc3F)CC2)c1C" , what call appears in the results of this test?
OUT: label 0
